Collected pIC50 values appear next to each entry.
Molecular target: hRIPK1 (aa 1-375) fusion protein (Homo sapiens)
Construct: hRIPK1 (aa 1-375) fusion protein
Sequence (Q13546 1-375): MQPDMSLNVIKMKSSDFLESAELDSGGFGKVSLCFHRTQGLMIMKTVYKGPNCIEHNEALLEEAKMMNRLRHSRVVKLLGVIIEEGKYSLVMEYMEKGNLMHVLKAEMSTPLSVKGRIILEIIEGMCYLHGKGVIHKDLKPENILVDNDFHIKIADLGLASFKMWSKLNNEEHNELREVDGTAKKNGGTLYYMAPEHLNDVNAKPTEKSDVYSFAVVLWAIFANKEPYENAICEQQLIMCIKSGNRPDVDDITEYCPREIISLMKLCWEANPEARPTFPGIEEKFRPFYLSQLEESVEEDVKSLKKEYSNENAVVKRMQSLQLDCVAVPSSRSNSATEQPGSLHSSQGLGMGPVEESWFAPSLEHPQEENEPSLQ
Assay: Receptor-Interacting Protein Kinase 1 inhibition, ADP Glo assay (conversion of ATP to ADP due to autophosphorylation)
Conditions: ATP 50 μM, 30 min preincubation, 240 min incubation, room temperature, DMSO 1%
pIC50: −log10 of the molar value.

# Molecule, pIC50
records = [
    ("CN1CC(=O)N(c2ccc(Cl)c(OC[C@H]3CC[C@H](C(=O)N4OCC[C@H]4c4cncc(C#N)c4)CC3)c2)C1=O", 7.33),
    ("NC(=O)c1ccnc(N[C@H]2C[C@@H](C(=O)N3OCC[C@H]3c3cc(F)cc(F)c3)C2)n1", 7.72),
    ("O=C([C@H]1C[C@@H](n2cnc3ccc(F)cc32)C1)N1OCC[C@H]1c1cc(F)cc(F)c1", 7.05),
    ("O=C([C@H]1C[C@H](n2cnc3cc(F)ccc32)C1)N1OCC[C@H]1c1cccc(F)c1", 6.59),
    ("N#Cc1cc(F)cc([C@@H]2CCON2C(=O)C2CCC(COc3cc(C(N)=O)ncn3)C2)c1 (single isomer, unassigned; stereoisomer 2) [Compound 116]", 7.64),
    ("N#Cc1cc(NC[C@H]2CC[C@H](C(=O)N3OCC[C@H]3c3ccc(Cl)cc3)CC2)ncn1", 8.05),
    ("N#Cc1cc(F)cc([C@@H]2CCON2C(=O)[C@H]2CC[C@H](COc3ccnc(C#N)c3)CC2)c1", 7.74),
]

Taken from patent US20260317312A1.
